Every entry's value here was drawn from patent US20110105397A1.

procedure-details: Nonclinical pharmacokinetics in dogs
Design: species or system dog
condition: male, in vivo; dog IV infusion 3 hours, M, 3.33 ng/kg/min; read-out: Cmax
experimental-readout: Cmax (ng/mL)
Supply the numeric figure in ng/mL, leaving out any unit text.

// field: Cmax; key: H-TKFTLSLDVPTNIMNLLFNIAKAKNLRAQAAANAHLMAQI-NH2 [SEQ ID NO: 1] ; value = 0.814

---

procedure-details: Human pharmacokinetics, healthy subjects, 7.5-hour continuous ascending dose IV infusion
Assay type: in vivo
condition: human, in vivo, healthy subjects, infusion rate 18/36/72 ng/kg/min, median, N = 2
experimental-readout: Tmax (h)
Supply the numeric figure in h, leaving out any unit text.

// field: Tmax; key: H-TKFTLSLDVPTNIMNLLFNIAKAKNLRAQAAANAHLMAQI-NH2 [SEQ ID NO: 1] ; value = 6.46
